Listed below: pKd values for each entry.
# TEST_SYSTEM: T1, DegP^S210A (E. coli, UniProt P0C0V0 27-474, S210A)
# T1 sequence: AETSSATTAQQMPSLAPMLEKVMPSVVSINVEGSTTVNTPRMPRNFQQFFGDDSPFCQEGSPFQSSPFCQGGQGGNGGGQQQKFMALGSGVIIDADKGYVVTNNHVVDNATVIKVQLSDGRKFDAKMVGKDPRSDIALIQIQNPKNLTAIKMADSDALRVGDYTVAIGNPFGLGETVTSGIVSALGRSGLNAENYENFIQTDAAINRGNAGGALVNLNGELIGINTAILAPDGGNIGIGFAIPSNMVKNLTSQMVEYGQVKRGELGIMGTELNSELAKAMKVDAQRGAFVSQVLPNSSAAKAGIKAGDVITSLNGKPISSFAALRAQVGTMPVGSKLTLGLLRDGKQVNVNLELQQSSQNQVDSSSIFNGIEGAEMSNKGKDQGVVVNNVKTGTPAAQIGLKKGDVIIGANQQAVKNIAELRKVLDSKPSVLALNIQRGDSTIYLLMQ
# TEST_NAME: ITC
Where no end group is shown, it is not given here.
Entry type: numeric. Quantity: pKd, the -log10 of concentration in molar units.

GTGDNYRGYSLGNWVSAAKFESNFNTQATNRNTDGSTDYGILQI [18–58 substrate peptide] :: 7.00

Now for a further binder.
**Query** Tell me its pKd given CYYKI (not fully specified (residue 1); printed as MMB_CYYKI, also called compound with one CYYKI arm; one-arm compound; source: synthetic peptide (SPPS), reacted with benzyl bromide) [MMB_CYYKI] as the entry.
**Result** 6.20

The reported numbers originate from paper PMC7529758.
